- System: 653999-131-R-J2-PDC complex spheroid viability;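 further: spheroids exposed to agents for seven days before readout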
- Protocol details: Anticancer human tumor 653999-131-R-J2-PDC patient-derived lung adenocarcinoma cell line growth inhibition
- Assay conditions: second compound 10 µM; first compound 3 µM; stronger effect = lower value
Property: viability, T/C

The cases that follow already have their viability, T/C on record.
Compound | viability, T/C
NS(=O)(=O)OCC1CC(n2ccc3c(NC4CCc5ccccc54)ncnc32)CC1O (configuration not stated) + NC1CC1c1ccc(-c2cccc(O)c2)cc1 | 48.2%
COc1cc(C2c3cc4c(cc3C(OC3OC5COC(C)OC5C(O)C3O)C3COC(=O)C23)OCO4)cc(OC)c1O (configuration not stated) + NC1CC1c1ccc(-c2cccc(O)c2)cc1 | 31.1%
Nc1ccccc1NC(=O)c1ccc(CNC(=O)OCc2cccnc2)cc1 + NC1CC1c1ccc(-c2cccc(O)c2)cc1 | 0.95%
O=C(C=Cc1cccc(S(=O)(=O)Nc2ccccc2)c1)NO + NC1CCC(NC2CC2c2ccccc2)CC1 | 3.12%
NS(=O)(=O)OCC1CC(n2ccc3c(NC4CCc5ccccc54)ncnc32)CC1O (configuration not stated) + NC1CCC(NC2CC2c2ccccc2)CC1 | 54.2%

Entry under test: Nc1ccccc1NC(=O)c1ccc(CNC(=O)OCc2cccnc2)cc1 + NC1CCC(NC2CC2c2ccccc2)CC1 . Its viability, T/C was 5.06%

Entry under test: CCN(c1cc(-c2ccc(CN3CCOCC3)cc2)cc(C(=O)NCc2c(C)cc(C)[nH]c2=O)c1C)C1CCOCC1 + NC1CCC(NC2CC2c2ccccc2)CC1 . Its viability, T/C was 82.4%
